B1: PLK2 (parent)
chain: MELLRTITYQPAASTKMCEQALGK

variants of: B1; test: protein stability index of a GFP-peptide fusion (GPS, HEK-293T) (PSI 1-6); higher = more stable; conditions: c terminus: a fixed tail appended;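 also: lentivirally expressed fusions sorted by FACS into six bins by GFP to DsRed ratio, PSI derived from sequencing read proportions per bin multiplied by bin number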
Use 2 as the dividing line for protein stability index, with the line itself on the satisfied side and lower values as not satisfied.

Solved cases (5 shown):
Variant Key | Group Label
K24W | satisfied
L3V | satisfied
M1Y | satisfied
T6N | satisfied
E2K | satisfied

Reported protein stability index reaches at least 2 for S14I ?
not satisfied

Reported protein stability index reaches at least 2 for T6S ?
not satisfied

Reported protein stability index reaches at least 2 for S14T ?
satisfied

Reported protein stability index reaches at least 2 for M17Q ?
satisfied

Reported protein stability index reaches at least 2 for K24F ?
satisfied

Reported protein stability index reaches at least 2 for G23Y ?
not satisfied

Reported protein stability index reaches at least 2 for E2L ?
satisfied

Reported protein stability index reaches at least 2 for M17A ?
satisfied

Reported protein stability index reaches at least 2 for Y9L ?
not satisfied

Values were extracted from the supplement of paper PMC10567573.
